Form field: relative viability (one value per entry).
Tested on: NCI-H1650
Assay: relative viability (nuclei count vs DMSO), 5 days (fraction); higher = more cells survive
Details: first compound 0.04 µM
Respond numerically, and do not add a unit to the figure.

// query Quick check: relative viability of COc1cc(N2CCC(C(N)=O)CC2)ccc1Nc1nc(N)c(Cl)c(Nc2ccccc2S(=O)(=O)C(C)C)n1 [HG-5-88-01] + CC(=O)Nc1cccc(-n2c(=O)n(C3CC3)c(=O)c3c(Nc4ccc(I)cc4F)n(C)c(=O)c(C)c32)c1 [Trametinib] (partner 0.02 µM) ?
// result 0.586

// query Quick check: relative viability of C[C@@H]1CN(CC(=O)Nc2ccc3c(c2)Cc2cccc(-c4cc(=O)cc(N5CCOCC5)o4)c2S3)C[C@H](C)O1 + Cc1cc(Nc2cc(N3CCN(C)CC3)nc(Sc3ccc(NC(=O)C4CC4)cc3)n2)n[nH]1 [Tozasertib] (partner 0.1 µM) ?
// result 0.433

// query Quick check: relative viability of C[C@@H]1CN(CC(=O)Nc2ccc3c(c2)Cc2cccc(-c4cc(=O)cc(N5CCOCC5)o4)c2S3)C[C@H](C)O1 + Cc1nc(Nc2ncc(C(=O)Nc3c(C)cccc3Cl)s2)cc(N2CCN(CCO)CC2)n1 [Dasatinib] (partner 0.075 µM) ?
// result 0.31

// query Quick check: relative viability of C[C@@H]1CN(CC(=O)Nc2ccc3c(c2)Cc2cccc(-c4cc(=O)cc(N5CCOCC5)o4)c2S3)C[C@H](C)O1 + CC(C)C[C@H](NC(=O)[C@H](Cc1ccccc1)NC(=O)c1cnccn1)B(O)O [Bortezomib] (partner 0.002 µM) ?
// result 0.221

---

Form field: relative viability (one value per entry).
Test system: NCI-H460
Test: relative viability (nuclei count vs DMSO), 5 days (fraction); higher = more cells survive
Settings: first compound 0.03162 µM
Respond numerically, and do not add a unit to the figure.

Here is how some compounds turned out for relative viability.
CC(C)Oc1cc(Nc2nc(N[C@@H](C)c3ccc(F)cn3)ncc2Cl)n[nH]1 [AZ23] + COc1cccc2cc(-c3nc([C@H]4CC[C@H](C(=O)O)CC4)n4ncnc(N)c34)[nH]c12 [OSI-027] (partner 0.5 µM) : 0.657
CC(C)Oc1cc(Nc2nc(N[C@@H](C)c3ccc(F)cn3)ncc2Cl)n[nH]1 [AZ23] + Cc1nc(Nc2ncc(C(=O)Nc3c(C)cccc3Cl)s2)cc(N2CCN(CCO)CC2)n1 [Dasatinib] (partner 0.075 µM) : 0.592
CC(C)Oc1cc(Nc2nc(N[C@@H](C)c3ccc(F)cn3)ncc2Cl)n[nH]1 [AZ23] + Nc1nc2[nH]cc(CCc3ccc(C(=O)N[C@@H](CCC(=O)O)C(=O)O)cc3)c2c(=O)[nH]1 [Pemetrexed] (partner 0.2 µM) : 0.0661

Would you kindly look at the next entry?
// query Quick check: relative viability of CC(C)Oc1cc(Nc2nc(N[C@@H](C)c3ccc(F)cn3)ncc2Cl)n[nH]1 [AZ23] + N=C(N)NC(=N)NCCc1ccccc1 [Phenformin] (partner 250 µM) ?
// result 0.601

---

Tested on: LU99A
Experiment: relative viability (nuclei count vs DMSO), 5 days (fraction); higher = more cells survive
Details: first compound 0.8 µM
ASSAY_READOUT: relative viability
Respond numerically, and do not add a unit to the figure.

CCCCCCCCCCCC1=C(O)C(=O)C=C(O)C1=O [Embelin] + CCNC(=O)c1noc(-c2cc(C(C)C)c(O)cc2O)c1-c1ccc(CN2CCOCC2)cc1 [Luminespib] (partner 0.01 µM) : 0.275

// query Quick check: relative viability of CCCCCCCCCCCC1=C(O)C(=O)C=C(O)C1=O [Embelin] + CC(C)C[C@H](NC(=O)[C@H](Cc1ccccc1)NC(=O)c1cnccn1)B(O)O [Bortezomib] (partner 0.002 µM) ?
// result 1.23

// query Quick check: relative viability of CCCCCCCCCCCC1=C(O)C(=O)C=C(O)C1=O [Embelin] + COc1cc2c(Oc3ccc(NC(=O)C4(C(=O)Nc5ccc(F)cc5)CC4)cc3F)ccnc2cc1OCCCN1CCOCC1 [Foretinib] (partner 0.25 µM) ?
// result 0.934

// query Quick check: relative viability of CCCCCCCCCCCC1=C(O)C(=O)C=C(O)C1=O [Embelin] + CS(=O)(=O)CCNCc1ccc(-c2ccc3ncnc(Nc4ccc(OCc5cccc(F)c5)c(Cl)c4)c3c2)o1 [Lapatinib] (partner 2 µM) ?
// result 0.991

// query Quick check: relative viability of CCCCCCCCCCCC1=C(O)C(=O)C=C(O)C1=O [Embelin] + COc1cccc2cc(-c3nc([C@H]4CC[C@H](C(=O)O)CC4)n4ncnc(N)c34)[nH]c12 [OSI-027] (partner 0.5 µM) ?
// result 0.358

// query Quick check: relative viability of CCCCCCCCCCCC1=C(O)C(=O)C=C(O)C1=O [Embelin] + Cc1nc(Nc2ncc(C(=O)Nc3c(C)cccc3Cl)s2)cc(N2CCN(CCO)CC2)n1 [Dasatinib] (partner 0.075 µM) ?
// result 0.759

// query Quick check: relative viability of CCCCCCCCCCCC1=C(O)C(=O)C=C(O)C1=O [Embelin] + Nc1nc2[nH]cc(CCc3ccc(C(=O)N[C@@H](CCC(=O)O)C(=O)O)cc3)c2c(=O)[nH]1 [Pemetrexed] (partner 0.2 µM) ?
// result 0.178
